assay: Protein binding in plasma (unknown origin); type: ADME, cell-free; settings: read-out: PPB (converted)

compound: CC#CCn1c(N2CCC[C@@H](N)C2)nc2c1c(=O)n(Cc1nc(C)c3ccccc3n1)c(=O)n2C [LINAGLIPTIN]
fraction unbound: 0.2

Cited source: ChEMBL document CHEMBL3525903
